compound: CCCCCCNC(=S)N1CCC(c2cccc(Br)c2)=N1 [Compound 5f]
melting point: 117 to 118.2 °C
--
compound: NC(=O)NN=Cc1ccc(-c2cccc(Cl)c2)o1 [Compound 6c]
melting point: 192.1 to 194.8 °C
--
compound: CCC(=NNC(N)=S)c1cccc(F)c1 [Compound 2c]
melting point: 138.8 to 139.5 °C
--
compound: CCC(=NNC(N)=S)c1ccc2cc(OC)ccc2c1 [Compound 1k]
melting point: 170.5 to 171.2 °C
--
compound: NC(=S)NN=Cc1ccccc1C(F)(F)F [Compound 2p]
melting point: 248.3 to 249.4 °C
--
compound: CC(=NNC(N)=O)c1cccc(Br)c1 [Compound 6b, 3′-Bromoacetophenone Semicarbazone]
melting point: 229.3 to 231.3 °C
--
compound: COc1ccccc1-c1ccc(C=NNC(N)=S)o1 [Compound 1c]
melting point: 209.5 to 211.1 °C
--
compound: CCC(=NN(SC)C(N)=O)c1cccc(Br)c1 [Compound 5a]
melting point: 156.6 to 158 °C
--
compound: CCC(=NNC(N)=S)c1ccc(Br)cc1 [Compound 2e, 4′-Bromopropiophenone Thio Semicarbazone]
melting point: 171.3 to 173 °C
--
compound: NC(=S)N1CCC(c2ccc(Cl)c(Cl)c2)=N1 [Compound 4e]
melting point: 199.3 to 201.4 °C

----------
Biological target: human cathepsin B (Homo sapiens, UniProt P07858)
Assay: Inhibition of cathepsin B protease activity
Format: biochemical
Settings: read-out: cathepsin B IC50 (μM) 5 min preincubation; 5 min preincubation

structureSmiles: O=C(N[C@H](/C=C/S(=O)(=O)c1ccccc1)CCc1ccccc1)[C@H](Cc1ccccc1)NC(=O)N1CCOCC1
IC50: 0.5 µM

----------
compound: CC1CN(C(N)=S)N=C1c1cccc(Cl)c1 (centres unmarked)
melting point: 131.3 °C (dec.)
--
compound: CCC(=NNC(N)=S)c1ccc(OC)cc1
melting point: 117.8 to 119.8 °C
--
compound: CC(=NNC(N)=S)c1ccccc1Br
melting point: 144.5 to 146.2 °C
--
compound: CCC(=NNC(N)=S)c1ccc(Cl)cc1Cl
melting point: 171.8 to 173 °C
--
compound: S=C(Nc1cccc(Cl)c1)N1CCC(c2cccc(Br)c2)=N1
melting point: 197.5 to 198.8 °C

----------
Target: human cathepsin B (Homo sapiens, UniProt P07858)
Assay: Inhibition of cathepsin B protease activity
Format: biochemical
Conditions: read-out: cathepsin B IC50 (μM) 30 min preincubation; 30 min preincubation
observedProperty: IC50

structureSmiles: O=C(N[C@H](/C=C/S(=O)(=O)c1ccccc1)CCc1ccccc1)[C@H](Cc1ccccc1)NC(=O)N1CCOCC1
observedProperty: IC50
result: < 0.1 µM

----------
compound: CC1CN(C(N)=S)N=C1c1cccc(C(F)(F)F)c1 (stereo not shown)
melting point: 120.8 to 121.9 °C
//
compound: CCC(=NNC(N)=S)c1ccccc1
melting point: 116.8 to 117.9 °C
//
compound: NC(=S)N1CCC(c2cccc(Br)c2)=N1
melting point: 172.9 to 174.5 °C
//
compound: NC(=S)NN=Cc1ccc(-c2cccc(Cl)c2)o1
melting point: 198.8 to 199.8 °C
//
compound: CCC(=NNC(N)=S)c1ccc(Cl)cc1
melting point: 175.1 to 176.8 °C
//
compound: Cn1cc(C=NNC(N)=S)c2ccccc21
melting point: 200.3 to 201.2 °C
//
compound: NC(=S)N1CCC(c2cccc(C(F)(F)F)c2)=N1
melting point: 159.2 to 161.1 °C
//
compound: CN(C)c1ccc(C=NNC(N)=S)c2ccccc12
melting point: 170.5 to 171.2 °C
//
compound: CC1CN(C(N)=S)N=C1c1cccc(Br)c1 (stereo not shown)
melting point: 107.4 to 109.9 °C
//
compound: CC(=NNC(N)=S)c1ccccc1Cl
melting point: 155.8 to 156.7 °C

----------
Target: T. cruzi cathepsin L-like protease (cruzain) (Trypanosoma cruzi, UniProt P25779)
Sequence (P25779 123-467): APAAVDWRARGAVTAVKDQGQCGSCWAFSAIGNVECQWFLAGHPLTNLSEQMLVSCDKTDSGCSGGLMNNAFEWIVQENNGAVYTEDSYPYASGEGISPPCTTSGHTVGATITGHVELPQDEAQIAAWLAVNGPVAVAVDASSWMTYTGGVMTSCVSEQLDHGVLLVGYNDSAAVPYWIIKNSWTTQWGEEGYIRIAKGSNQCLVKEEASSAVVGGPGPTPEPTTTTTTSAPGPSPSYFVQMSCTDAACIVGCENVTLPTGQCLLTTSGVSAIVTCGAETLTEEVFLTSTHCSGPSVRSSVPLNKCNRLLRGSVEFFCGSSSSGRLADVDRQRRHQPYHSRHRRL
Test: biochemical
Settings: 5 min incubation, room temperature, pH 5.50; read-out: IC50 against cruzain

molecule: CC(=NNC(N)=S)c1cccc(Br)c1
readoutRelation: =
IC50 [nM]: 200
//
molecule: NC(=S)NN=Cc1cccc(Br)c1
readoutRelation: =
IC50 [nM]: 1300
//
molecule: NC(=S)NN=Cc1ccc(-c2cccc(Cl)c2)o1
readoutRelation: <
IC50 [nM]: 300
//
molecule: NC(=S)NN=Cc1ccc(-c2ccc(Br)cc2)o1
readoutRelation: <
IC50 [nM]: 300
//
molecule: COc1ccc2ccccc2c1C=NNC(N)=S
readoutRelation: =
IC50 [nM]: 560
//
molecule: CCC(=NNC(N)=S)c1ccc(Cl)c(Cl)c1
readoutRelation: =
IC50 [nM]: 20
//
molecule: CC1CN(C(N)=S)N=C1c1cccc(Br)c1 (stereo not shown)
readoutRelation: =
IC50 [nM]: 80

----------
Target: T. cruzi cathepsin L-like protease (cruzain) (Trypanosoma cruzi, UniProt P25779)
Assay: biochemical
Method: IC50 Determinations. Inhibitors were screened for effectiveness against the T. cruzi cathepsin L-like protease (cruzain) using purified recombinant protein. […] The increase in fluorescence (excitation at 355 nm and emission at 460 nm) was followed with an automated microtiter plate spectrofluorimeter (Molecular Devices, spectraMAX Gemini). […] IC50 values were determined graphically using inhibitor concentrations in the linear portion of a plot of inhibition versus log [I] […]
pIC50: −log10 of the molar value.
observedProperty: pIC50

compound: CCC(=NNC(N)=S)c1cccc(Cl)c1 [Compound 2a]
readoutRelation: =
result: 6.66
--
compound: COc1ccccc1-c1ccc(C=NNC(N)=S)o1 [Compound 1c]
readoutRelation: >
result: 6.52

----------
Biological target: UniProtKB P25779
Format: biochemical
Settings: incubation 90 s to 24 h

compound: CC(=NNC(N)=S)c1cccc(Br)c1 [Compound 3b, 3′-Bromoacetophenone Thio Semicarbazone]
time dependence of cruzain inhibition: time-dependent
//
compound: O=C(N[C@H](/C=C/S(=O)(=O)c1ccccc1)CCc1ccccc1)[C@H](Cc1ccccc1)NC(=O)N1CCOCC1 [Compound K002]
time dependence of cruzain inhibition: rapidly time-dependent
//
compound: NC(=S)N1CCC(c2cccc(Br)c2)=N1 [Compound 4a]
time dependence of cruzain inhibition: time-dependent
//
compound: CC1CN(C(N)=S)N=C1c1cccc(Br)c1 (stereo not drawn) [Compound 4b]
time dependence of cruzain inhibition: time-dependent
//
compound: CCC(=NNC(N)=S)c1cccc(Br)c1 [Compound 1i, 3′-Bromopropiophenone Thio Semicarbazone]
time dependence of cruzain inhibition: time-dependent
//
compound: CC(=O)N[C@@H](CC(C)C)C(=O)N[C@@H](CC(C)C)C(=O)N[C@H](C=O)CCCNC(=N)N [leupeptin, reference compound]
time dependence of cruzain inhibition: rapidly time-dependent
//
compound: FC(F)(F)c1cccc(NC(=S)N2CCC(c3cccc(Cl)c3)=N2)c1 [Compound 5e]
time dependence of cruzain inhibition: showed time dependency
//
compound: NC(=S)NN=Cc1cccc(Br)c1 [Compound 3a, 3-Bromobenzaldehyde Thio Semicarbazone]
time dependence of cruzain inhibition: time-dependent
//
compound: CCC(NNC(N)=S)c1cccc(Br)c1 (stereo not drawn) [Compound 7a, 1-(3′-bromophenyl)propylaminothiourea]
time dependence of cruzain inhibition: showed time dependency

----------
Molecular target: T. cruzi cathepsin L-like protease (cruzain) (Trypanosoma cruzi, UniProt P25779)
Assay: biochemical
Conditions: 5 min incubation, room temperature, pH 5.50; read-out: IC50 against cruzain
pIC50: −log10 of the molar value.

structureSmiles: CCC(=NNC(N)=S)c1cccc(C(F)(F)F)c1
readoutRelation: =
pIC50: 7.30
--
structureSmiles: NC(=S)NN=Cc1ccc(-c2ccc(Cl)cc2)o1
readoutRelation: >
pIC50: 6.52
--
structureSmiles: CCC(=NNC(N)=S)c1cc(C(F)(F)F)cc(C(F)(F)F)c1
readoutRelation: =
pIC50: 7.70

From: patent US7495023B2
